Molecular target: 5-hydroxytryptamine receptor 3A (Homo sapiens) (UniProt P46098)
Sequence (P46098 whole entry): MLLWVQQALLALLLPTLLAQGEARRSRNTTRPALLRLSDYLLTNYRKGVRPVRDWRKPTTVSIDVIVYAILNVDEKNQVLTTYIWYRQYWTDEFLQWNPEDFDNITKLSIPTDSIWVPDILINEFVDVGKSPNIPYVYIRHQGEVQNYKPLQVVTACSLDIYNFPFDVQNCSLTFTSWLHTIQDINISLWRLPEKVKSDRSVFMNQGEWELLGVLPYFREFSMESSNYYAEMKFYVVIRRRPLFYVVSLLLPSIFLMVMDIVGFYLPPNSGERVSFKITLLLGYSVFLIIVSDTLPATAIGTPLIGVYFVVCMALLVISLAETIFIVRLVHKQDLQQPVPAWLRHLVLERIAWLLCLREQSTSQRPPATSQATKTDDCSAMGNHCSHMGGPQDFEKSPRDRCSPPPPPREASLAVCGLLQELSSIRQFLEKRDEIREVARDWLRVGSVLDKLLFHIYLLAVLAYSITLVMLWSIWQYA
Assay: Antagonist activity at recombinant human 5-HT3 assessed as inhibition of agonist-induced effect at 10 uM by aequorin reporter based assay
quantity: inhibition
A complete answer gives the number followed by the unit.

Asked: Could you share which inhibition value was measured for COc1ccc(C(=O)NCCCN(C)Cc2ccccc2)cc1 ?
Given back: 19%

Asked: Could you share which inhibition value was measured for CN(CCNC(=O)c1ccc([N+](=O)[O-])cc1)Cc1ccccc1 ?
Given back: 30%

Asked: Could you share which inhibition value was measured for COc1cccc(C(=O)NCCCN(C)Cc2ccccc2)c1 ?
Given back: 28%

====

Molecular target: 5-hydroxytryptamine receptor 6 (Homo sapiens) (UniProt P50406)
Sequence (P50406 whole entry): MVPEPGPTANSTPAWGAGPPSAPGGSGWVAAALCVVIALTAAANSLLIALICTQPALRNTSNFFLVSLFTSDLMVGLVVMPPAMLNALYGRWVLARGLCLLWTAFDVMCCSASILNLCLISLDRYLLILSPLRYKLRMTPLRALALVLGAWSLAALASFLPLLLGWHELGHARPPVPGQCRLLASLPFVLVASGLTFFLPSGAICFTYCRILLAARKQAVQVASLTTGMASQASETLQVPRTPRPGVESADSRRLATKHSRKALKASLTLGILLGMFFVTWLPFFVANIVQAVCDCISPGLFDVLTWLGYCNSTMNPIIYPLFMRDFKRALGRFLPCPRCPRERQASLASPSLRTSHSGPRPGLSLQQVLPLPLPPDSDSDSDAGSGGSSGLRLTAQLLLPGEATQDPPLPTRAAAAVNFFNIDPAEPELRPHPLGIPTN
Test: Antagonist activity at recombinant human 5-HT6R assessed as inhibition of agonist-induced cAMP induction at 10 uM by HTRF assay
Assay type: functional
# reported inhibition; entries follow
Numbers only here, please. The scale is %.

Observe how each entry below is paired with its result.
>  <substance-smiles>
COc1cccc(C(=O)NCCCN(C)Cc2ccccc2)c1

>  <test-result>
-1

$$$$
>  <substance-smiles>
CN(CCCNC(=O)c1ccc(Br)cc1)Cc1ccccc1

>  <test-result>
-1

$$$$
>  <substance-smiles>
CN(CCCNC(=O)c1ccc(Cl)cc1)Cc1ccccc1

>  <test-result>
-6

$$$$
>  <substance-smiles>
COc1ccc(C(=O)NCCCN(C)Cc2ccccc2)cc1

>  <test-result>
0

$$$$
>  <substance-smiles>
CN(CCNC(=O)c1ccc(Cl)cc1)Cc1ccccc1

>  <test-result>
-3

$$$$
>  <substance-smiles>
CN(CCNC(=O)c1ccc(C#N)cc1)Cc1ccccc1

>  <test-result>
-2

$$$$

Asked: Could you share which inhibition value was measured for CN(CCCNC(=O)c1ccc(C(F)(F)F)cc1)Cc1ccccc1 ?
Given back: 1

Asked: Could you share which inhibition value was measured for CCCc1ccc(C(=O)NCCCN(C)Cc2ccccc2)cc1 ?
Given back: 1

====

Molecular target: 5-hydroxytryptamine receptor 3A (Homo sapiens) (UniProt P46098)
Assay: Antagonist activity at recombinant human 5-HT3 assessed as inhibition of agonist-induced effect at 10 uM by aequorin reporter based assay
# binarize inhibition: threshold 80% inclusive, high side met, low side not met

Field: example entries. Status: answers known.
>  <substance-smiles>
CN(CCNC(=O)c1ccc(Cl)cc1)Cc1ccccc1

>  <assigned-category>
not met

$$$$
>  <substance-smiles>
CN(CCCNC(=O)c1ccc([N+](=O)[O-])cc1)Cc1ccccc1

>  <assigned-category>
not met

$$$$
>  <substance-smiles>
CN(CCCNC(=O)c1ccc(Cl)cc1)Cc1ccccc1

>  <assigned-category>
not met

$$$$
>  <substance-smiles>
CN(CCNC(=O)c1ccc(C#N)cc1)Cc1ccccc1

>  <assigned-category>
not met

$$$$

--- query ---
Asked: Form field: inhibition at least 80%? Entry: CN(CCCNC(=O)c1cccc(Br)c1)Cc1ccccc1
Given back: met

====

Molecular target: Vasopressin V1a receptor (Homo sapiens) (UniProt P37288)
Sequence (P37288 whole entry, looked up): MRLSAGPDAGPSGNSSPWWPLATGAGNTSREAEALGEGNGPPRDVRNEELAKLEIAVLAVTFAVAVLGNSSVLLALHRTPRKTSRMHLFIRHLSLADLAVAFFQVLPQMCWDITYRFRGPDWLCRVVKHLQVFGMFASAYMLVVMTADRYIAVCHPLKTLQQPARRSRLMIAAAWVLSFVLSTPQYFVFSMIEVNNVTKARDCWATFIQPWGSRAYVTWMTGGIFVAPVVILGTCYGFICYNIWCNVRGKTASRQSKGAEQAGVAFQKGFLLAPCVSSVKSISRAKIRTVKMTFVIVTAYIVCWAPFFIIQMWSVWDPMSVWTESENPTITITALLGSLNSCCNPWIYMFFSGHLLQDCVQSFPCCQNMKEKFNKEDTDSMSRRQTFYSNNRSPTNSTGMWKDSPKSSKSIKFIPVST
Test: Antagonist activity at recombinant human V1A receptor assessed as inhibition of agonist-induced effect at 10 uM by aequorin reporter based assay
Type: functional
quantity: inhibition (%)
Numbers only here, please. The scale is %.

Observe how each entry below is paired with its result.
>  <substance-smiles>
CN(CCNC(=O)c1ccc(C#N)cc1)Cc1ccccc1

>  <inhibition / %>
9

$$$$
>  <substance-smiles>
CN(CCNC(=O)c1ccc([N+](=O)[O-])cc1)Cc1ccccc1

>  <inhibition / %>
6

$$$$
>  <substance-smiles>
CN(CCCNC(=O)c1ccc(Br)cc1)Cc1ccccc1

>  <inhibition / %>
0

$$$$

Asked: What measured inhibition is associated with CN(CCCNC(=O)c1ccc([N+](=O)[O-])cc1)Cc1ccccc1 on Vasopressin V1a receptor (Homo sapiens) (UniProt P37288)?
Given back: 6

Asked: What measured inhibition is associated with CN(CCCNC(=O)c1ccc(C(F)(F)F)cc1)Cc1ccccc1 on Vasopressin V1a receptor (Homo sapiens) (UniProt P37288)?
Given back: 6

Asked: What measured inhibition is associated with COc1cccc(C(=O)NCCCN(C)Cc2ccccc2)c1 on Vasopressin V1a receptor (Homo sapiens) (UniProt P37288)?
Given back: 3

meta.source: ChEMBL document CHEMBL4130363
